# experimental_details: in vitro
# Type: in vitro ADME, human
# experimental_context: human, microsomes
endpoint_name: log10 half-life (log10 of the value in min)

[
  {
    "molecule": "CC(=O)OCCCN(CCCOC(C)=O)CC(=O)OC(C)(C)C(=O)OCC(=O)O[C@]1(C)CC[C@@]2(C)[C@@H](CC[C@@H]3[C@@H]2CC[C@]2(C)[C@@H](C(C)=O)CC[C@@H]32)C1 [Compound 237]",
    "log10 half-life": 0.71
  },
  {
    "molecule": "CC(=O)[C@H]1CC[C@H]2[C@@H]3CC[C@H]4C[C@](C)(OC(=O)CNC(C)(C)CO)CC[C@]4(C)[C@H]3CC[C@]12C [Compound 132]",
    "log10 half-life": 1.07
  },
  {
    "molecule": "CC(=O)[C@H]1CC[C@H]2[C@@H]3CC[C@H]4C[C@](C)(OC(=O)CNC(=O)C(C)(C)O)CC[C@]4(C)[C@H]3CC[C@]12C [Compound 141]",
    "log10 half-life": 1.58
  },
  {
    "molecule": "CC(=O)OCCN(C)CC(=O)OC(C)(C)C(=O)OCC(=O)O[C@]1(C)CC[C@@]2(C)[C@@H](CC[C@@H]3[C@@H]2CC[C@]2(C)[C@@H](C(C)=O)CC[C@@H]32)C1 [Compound 242]",
    "log10 half-life": 0.15
  },
  {
    "molecule": "COC(=O)[C@@H](C)NCC(=O)O[C@]1(C)CC[C@@]2(C)[C@@H](CC[C@@H]3[C@@H]2CC[C@]2(C)[C@@H](C(C)=O)CC[C@@H]32)C1 [Compound 106]",
    "log10 half-life": 0.66
  },
  {
    "molecule": "CC(=O)[C@H]1CC[C@H]2[C@@H]3CC[C@H]4C[C@](C)(OC(=O)CNCCO)CC[C@]4(C)[C@H]3CC[C@]12C [Compound 107]",
    "log10 half-life": 1.81
  },
  {
    "molecule": "CC(=O)[C@H]1CC[C@H]2[C@@H]3CC[C@H]4C[C@](C)(OC(=O)CN5CCOCC5)CC[C@]4(C)[C@H]3CC[C@]12C [Compound 101]",
    "log10 half-life": 1.01
  },
  {
    "molecule": "CC(=O)[C@H]1CC[C@H]2[C@@H]3CC[C@H]4C[C@](C)(OC(=O)COC(=O)C(C)(C)OC(=O)CN(C)C)CC[C@]4(C)[C@H]3CC[C@]12C [Compound 227]",
    "log10 half-life": 1.38
  },
  {
    "molecule": "CC(=O)[C@H]1CC[C@H]2[C@@H]3CC[C@H]4C[C@](C)(OC(=O)COC(=O)C(C)(C)O)CC[C@]4(C)[C@H]3CC[C@]12C [Compound 224]",
    "log10 half-life": 0.22
  },
  {
    "molecule": "COCCN(CCOC(C)=O)CC(=O)OC(C)(C)C(=O)OCC(=O)O[C@]1(C)CC[C@@]2(C)[C@@H](CC[C@@H]3[C@@H]2CC[C@]2(C)[C@@H](C(C)=O)CC[C@@H]32)C1 [Compound 236]",
    "log10 half-life": 0.57
  },
  {
    "molecule": "CC(=O)[C@H]1CC[C@H]2[C@@H]3CC[C@H]4C[C@](C)(OC(=O)CSCCN)CC[C@]4(C)[C@H]3CC[C@]12C [Compound 302]",
    "log10 half-life": 2.39
  }
]
